Data origin: patent US20230218632A1

target: TRAP1 enzyme (Homo sapiens); assay: ADP Glo assay (ATPase activity of TRAP1); type: biochemical; conditions: maximal percent activation; read-out: ADP GLO DRC: Mean Emax
measured property: Emax

Find the recorded Emax belonging to Cc1ncsc1C(=O)Nc1ccc2c(c1)S(=O)(=O)N(c1ccc(C(F)(F)F)cc1)CCO2 and report it.
150 to 200%

Find the recorded Emax belonging to Cc1cc(C(=O)Nc2ccc3c(c2)S(=O)(=O)N(c2ccc(C(F)(F)F)cc2)CCO3)ccn1 and report it.
150 to 200%

Find the recorded Emax belonging to Cc1cc(C(=O)Nc2cnc3c(c2)S(=O)(=O)N(c2ccc(C(F)(F)F)cc2)CCO3)n(C)n1 and report it.
> 200%

Find the recorded Emax belonging to Cc1ccccc1N1CCOc2ccc(NC(=O)c3ncoc3C)cc2S1(=O)=O and report it.
150 to 200%

---

Target: TRAP1 enzyme (Homo sapiens, UniProt Q12931)
Sequence (Q12931 60-704): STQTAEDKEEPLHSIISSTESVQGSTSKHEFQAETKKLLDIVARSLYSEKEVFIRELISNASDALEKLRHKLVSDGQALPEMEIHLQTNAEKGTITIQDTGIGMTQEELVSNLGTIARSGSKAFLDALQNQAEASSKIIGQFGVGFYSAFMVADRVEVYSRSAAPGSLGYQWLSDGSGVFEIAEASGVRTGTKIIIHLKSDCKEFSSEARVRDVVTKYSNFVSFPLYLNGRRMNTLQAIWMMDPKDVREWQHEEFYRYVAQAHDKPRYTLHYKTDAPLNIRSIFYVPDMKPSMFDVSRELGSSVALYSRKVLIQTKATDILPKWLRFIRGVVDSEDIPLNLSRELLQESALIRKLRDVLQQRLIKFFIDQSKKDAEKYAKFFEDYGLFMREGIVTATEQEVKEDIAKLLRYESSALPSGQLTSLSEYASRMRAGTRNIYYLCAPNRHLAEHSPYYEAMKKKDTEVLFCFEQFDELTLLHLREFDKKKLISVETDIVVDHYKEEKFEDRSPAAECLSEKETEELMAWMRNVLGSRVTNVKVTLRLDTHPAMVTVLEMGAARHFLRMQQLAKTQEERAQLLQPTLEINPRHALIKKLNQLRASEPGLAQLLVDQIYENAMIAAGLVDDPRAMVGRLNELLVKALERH
Assay: ADP Glo assay (ATPase activity of TRAP1)
Conditions: 150 nM Trap1, 20 µM ATP, concentration for half maximal activation; read-out: ADP GLO DRC: GeoMean EC50
EC50 for assorted compounds

Find the recorded EC50 belonging to Cc1ccncc1C(=O)Nc1ccc2c(c1)S(=O)(=O)N(c1ccc(Cl)cc1)CCO2 and report it.
30 to 100 µM

---

Target: UniProt Q12931
Assay: ADP Glo assay (ATPase activity of TRAP1)
Assay type: biochemical
Settings: maximal percent activation; read-out: ADP GLO DRC: Mean Emax
Protocol: Potency of test compounds to modulate the ATPase activity of TRAP1 enzyme was evaluated using ADP Glo assay. The assay is based on quantification of the ADP generated from ATP in the ATPase reaction. […] Second, the Kinase Detection Reagent is added to simultaneously convert ADP to ATP and allow the newly synthesized ATP to be measured using a luciferase/luciferin reaction. […]
measured property: Emax

Find the recorded Emax belonging to COc1cc(C(=O)Nc2ccc3c(c2)S(=O)(=O)N(c2ccc(C(F)(F)F)cc2)CCO3)n(C)n1 and report it.
150 to 200%

Find the recorded Emax belonging to Cc1nccnc1C(=O)Nc1ccc2c(c1)S(=O)(=O)N(c1ccc(C(F)(F)F)cc1)CCO2 and report it.
129 to 149%

Find the recorded Emax belonging to CC(C)n1cc(C(=O)Nc2ccc3c(c2)S(=O)(=O)N(c2ccc(C(F)(F)F)cc2)CCO3)cn1 and report it.
129 to 149%

---

Emax for assorted compounds
molecular target: UniProt Q12931; assay: ADP Glo assay (ATPase activity of TRAP1); assay type: biochemical; details: maximal percent activation; read-out: ADP GLO DRC: Mean Emax

Cc1cnn(C)c1C(=O)Nc1ccc2c(c1)S(=O)(=O)N(c1ccc(C(F)(F)F)cc1)CCO2: 129 to 149%
CC(C)c1ncsc1C(=O)Nc1ccc2c(c1)S(=O)(=O)N(c1ccc(C(F)(F)F)cc1)CCO2: 129 to 149%
O=C(Nc1ccc2c(c1)S(=O)(=O)N(c1ccc(C(F)(F)F)cc1)CCO2)c1ncoc1C(F)(F)F: 129 to 149%
O=C(Nc1ccc2c(c1)S(=O)(=O)N(c1ccc(C(F)(F)F)cc1)CCO2)c1cnc[nH]c1=O: 150 to 200%
COc1ccc(N2CCOc3ccc(NC(=O)c4ncoc4C)cc3S2(=O)=O)cc1: 150 to 200%

Find the recorded Emax belonging to O=C(Nc1ccc2c(c1)S(=O)(=O)N(c1ccc(C(F)(F)F)cc1)CCO2)c1cccc(CO)n1 and report it.
150 to 200%

Find the recorded Emax belonging to O=C(Nc1ccc2c(c1)S(=O)(=O)N(c1ccc(C(F)(F)F)cc1)CCO2)c1cc(=O)cco1 and report it.
> 200%

Find the recorded Emax belonging to Cn1cc(C(=O)Nc2ccc3c(c2)S(=O)(=O)N(c2ccc(C(F)(F)F)cc2)CCO3)cn1 and report it.
150 to 200%

Find the recorded Emax belonging to COCc1oncc1C(=O)Nc1ccc2c(c1)S(=O)(=O)N(c1ccc(C(F)(F)F)cc1)CCO2 and report it.
150 to 200%

Find the recorded Emax belonging to Cc1ncoc1C(=O)Nc1ccc2c(c1)S(=O)(=O)N(c1ccc(C(F)(F)F)cc1)CCC2 and report it.
129 to 149%

Find the recorded Emax belonging to Cc1ncn(C)c1C(=O)Nc1ccc2c(c1)S(=O)(=O)N(c1ccc(C(F)(F)F)cc1)CCO2 and report it.
150 to 200%

Find the recorded Emax belonging to O=C(Nc1ccc2c(c1)S(=O)(=O)N(c1ccc(C(F)(F)F)cc1)CCO2)c1cnccc1F and report it.
129 to 149%

Find the recorded Emax belonging to O=C(Nc1ccc2c(c1)S(=O)(=O)N(c1ccc(C(F)(F)F)cc1)CCO2)c1cnco1 and report it.
> 200%

Find the recorded Emax belonging to COc1ccncc1C(=O)Nc1ccc2c(c1)S(=O)(=O)N(c1ccc(C(F)(F)F)cc1)CCO2 and report it.
150 to 200%

Find the recorded Emax belonging to CCc1nn(C)cc1C(=O)Nc1ccc2c(c1)S(=O)(=O)N(c1ccc(C(F)(F)F)cc1)CCO2 and report it.
150 to 200%

Find the recorded Emax belonging to Cn1ccnc1C(=O)Nc1ccc2c(c1)S(=O)(=O)N(c1ccc(C(F)(F)F)cc1)CCO2 and report it.
129 to 149%

Find the recorded Emax belonging to Cn1c(C(=O)Nc2ccc3c(c2)S(=O)(=O)N(c2ccc(C(F)(F)F)cc2)CCO3)cnc1O and report it.
> 200%

---

target: TRAP1 enzyme (Homo sapiens, UniProt Q12931); assay: ADP Glo assay (ATPase activity of TRAP1); conditions: 150 nM Trap1, 20 µM ATP, concentration for half maximal activation; read-out: ADP GLO DRC: GeoMean EC50
pEC50: −log10 of the molar value.
measured property: pEC50

Cn1ccc(C(=O)Nc2ccc3c(c2)S(=O)(=O)N(c2ccc(C(F)(F)F)cc2)CCO3)n1: > 4.70
Cc1ocnc1C(=O)Nc1ccc2c(c1)S(=O)(=O)N(c1ccc(C#N)cc1)CCO2: 4.00 to 4.52
Cn1nc(C(=O)Nc2ccc3c(c2)S(=O)(=O)N(c2ccc(C(F)(F)F)cc2)CCO3)ccc1=O: 4.52 to 4.70

Identify the measured pEC50 of CC(C)c1oncc1C(=O)Nc1ccc2c(c1)S(=O)(=O)N(c1ccc(C(F)(F)F)cc1)CCO2 for TRAP1 enzyme (Homo sapiens, UniProt Q12931).
4.00 to 4.52

Identify the measured pEC50 of COc1cc(C(=O)Nc2ccc3c(c2)S(=O)(=O)N(c2ccc(C(F)(F)F)cc2)CCO3)n(C)n1 for TRAP1 enzyme (Homo sapiens, UniProt Q12931).
> 4.70

Identify the measured pEC50 of O=C(Nc1ccc2c(c1)S(=O)(=O)N(c1ccc(C(F)(F)F)cc1)CCO2)c1cccnn1 for TRAP1 enzyme (Homo sapiens, UniProt Q12931).
4.00 to 4.52

---

target: TRAP1 enzyme (Homo sapiens, UniProt Q12931); experiment: ADP Glo assay (ATPase activity of TRAP1); format: biochemical; details: maximal percent activation; read-out: ADP GLO DRC: Mean Emax
Emax for assorted compounds

Find the recorded Emax belonging to O=C(Nc1ccc2c(c1)S(=O)(=O)N(c1ccc(C(F)(F)F)cc1)CCO2)c1cscn1 and report it.
129 to 149%

Find the recorded Emax belonging to Cc1ocnc1C(=O)Nc1ccc2c(c1)S(=O)(=O)N(c1ccc(C(F)(F)F)cc1)CCO2 and report it.
129 to 149%

Find the recorded Emax belonging to O=C(Nc1ccc2c(c1)S(=O)(=O)N(c1ccc(C(F)(F)F)cc1)CCO2)c1ccccn1 and report it.
129 to 149%

Find the recorded Emax belonging to O=C(Nc1ccc2c(c1)S(=O)(=O)N(c1ccc(C(F)(F)F)cc1)CCO2)c1cccnc1O and report it.
150 to 200%

Find the recorded Emax belonging to Cc1nscc1C(=O)Nc1ccc2c(c1)S(=O)(=O)N(c1ccc(C(F)(F)F)cc1)CCO2 and report it.
129 to 149%
